Each entry below lists one item and its recorded abundance fitness value.
B1: Mineralocorticoid receptor, residues 600 to 675; numbered along this chain, P08235 (parent)
chain: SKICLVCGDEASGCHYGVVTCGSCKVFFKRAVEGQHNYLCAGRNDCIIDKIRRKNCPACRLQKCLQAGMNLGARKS

- Variants of: B1
- experiment-summary: abundance fitness (aPCA) (normalised: wild type 0, dead -1); higher = more abundant; growth selection in yeast, the domain comes from the species named
- stated-conditions: Homo sapiens
Write the number on its own, no unit after it.

stdin: Which measured abundance fitness value corresponds to A11S ?
stdout: -0.044
